# measured_target: human GPR119 (Homo sapiens, UniProt Q8TDV5)
# measurement_protocol: GPR 119 radioligand binding assay ([3H]-Compound A or [3H]-Compound B, membranes of HEK 293FT cells over-expressing hGPR119)
# recorded_conditions: calculated from IC50 by Cheng-Prusoff; each line is a separate determination
Exercise: state measured pKi for each of the molecules provided.
Numbers only, as −log10 of the molar value.

q: # get_value(readout='pKi', item= `Cc1c(O[C@@H]2[C@@H]3COC[C@H]2CN(C(=O)OC(C)C)C3)ncnc1N1CCc2cc(S(C)(=O)=O)ccc21` )
a: 6.89

In the following, a different molecule is considered.
q: # get_value(readout='pKi', item= `Cc1c(O[C@@H]2[C@@H]3COC[C@H]2CN(C(=O)OC2(C)CC2)C3)ncnc1N1CCc2ncccc21` )
a: 7.34

* * *

# measured_target: UniProt Q8TDV5
# Sequence (Q8TDV5 1-335): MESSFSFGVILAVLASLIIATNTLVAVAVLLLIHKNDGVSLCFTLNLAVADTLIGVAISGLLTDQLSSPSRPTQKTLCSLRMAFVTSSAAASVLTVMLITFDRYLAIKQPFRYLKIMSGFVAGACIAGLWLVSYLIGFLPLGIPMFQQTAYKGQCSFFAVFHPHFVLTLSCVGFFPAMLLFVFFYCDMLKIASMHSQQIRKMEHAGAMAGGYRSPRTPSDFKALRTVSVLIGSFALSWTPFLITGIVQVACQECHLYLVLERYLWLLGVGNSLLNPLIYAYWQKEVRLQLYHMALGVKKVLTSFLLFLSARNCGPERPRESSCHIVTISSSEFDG
# measurement_protocol: β-lactamase reporter functional assay for GPR119 agonists (hGPR119 HEK293-CRE beta-lactamase cells)
# Assay type: cell-based
# Design: host or cells: hGPR119-HEK293-CRE-beta-lactamase cells
# recorded_conditions: hGPR119 HEK293-CRE beta-lactamase cells; each line is a separate determination; read-out: Human B-lactamase Functional EC50
experimental_endpoint: EC50 (nM)
Numbers only, in nM.

q: Give recorded EC50 with UniProt Q8TDV5 for the following compound: Cc1c(O[C@@H]2[C@@H]3COC[C@H]2CN(C(=O)OC(C)C)C3)ncnc1N1CCc2cc(S(C)(=O)=O)ccc21 [Example 23]
a: 64.7

* * *

# measured_target: human GPR119 (Homo sapiens, UniProt Q8TDV5)
# Construct: host or cells: U2OS hGPR119 β-arrestin cell line
# measurement_protocol: DiscoverX PathHunter β-arrestin cell assay (U2OS hGPR119 β-arrestin cell line)
# Type: cell-based
# recorded_conditions: U2OS hGPR119 β-arrestin cells; each line is a separate determination; read-out: Human B-arrestin Functional EC50
# Sequence (P32121 whole entry partner, one chain of several): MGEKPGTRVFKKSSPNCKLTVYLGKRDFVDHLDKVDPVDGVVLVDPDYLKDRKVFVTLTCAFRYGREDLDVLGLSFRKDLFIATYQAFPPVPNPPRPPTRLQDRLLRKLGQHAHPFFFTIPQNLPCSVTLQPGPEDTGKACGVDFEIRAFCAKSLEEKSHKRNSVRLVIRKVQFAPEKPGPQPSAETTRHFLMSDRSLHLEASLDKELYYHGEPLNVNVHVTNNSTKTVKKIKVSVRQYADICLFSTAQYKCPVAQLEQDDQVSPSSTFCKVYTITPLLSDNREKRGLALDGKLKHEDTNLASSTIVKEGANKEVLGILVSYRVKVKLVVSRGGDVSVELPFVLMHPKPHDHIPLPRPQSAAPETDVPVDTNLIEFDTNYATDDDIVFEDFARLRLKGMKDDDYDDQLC
Exercise: state measured pEC50 for each of the compounds provided.
Answers are plain numbers, as −log10 of the molar value.

q: # get_value(readout='pEC50', item= Cc1c(O[C@@H]2[C@@H]3COC[C@H]2CN(C(=O)OC(C)C)C3)ncnc1N1CCc2cc(S(C)(=O)=O)ccc21 [Example 23] )
a: 7.43

In the following, a different compound is considered.
q: # get_value(readout='pEC50', item= Cc1c(O[C@@H]2[C@@H]3COC[C@H]2CN(C(=O)OC2(C)CC2)C3)ncnc1N1CCc2ncccc21 [Example 28] )
a: 8.42
